Source of measurements: the supplement of paper PMC7877785

test: self-splicing fitness, log relative to wild type (ln ratio); higher = more splicing; Tetrahymena group I intron in knt gene, E. coli kanamycin selection, DiMSum; sequences stand for … in CUCUCU…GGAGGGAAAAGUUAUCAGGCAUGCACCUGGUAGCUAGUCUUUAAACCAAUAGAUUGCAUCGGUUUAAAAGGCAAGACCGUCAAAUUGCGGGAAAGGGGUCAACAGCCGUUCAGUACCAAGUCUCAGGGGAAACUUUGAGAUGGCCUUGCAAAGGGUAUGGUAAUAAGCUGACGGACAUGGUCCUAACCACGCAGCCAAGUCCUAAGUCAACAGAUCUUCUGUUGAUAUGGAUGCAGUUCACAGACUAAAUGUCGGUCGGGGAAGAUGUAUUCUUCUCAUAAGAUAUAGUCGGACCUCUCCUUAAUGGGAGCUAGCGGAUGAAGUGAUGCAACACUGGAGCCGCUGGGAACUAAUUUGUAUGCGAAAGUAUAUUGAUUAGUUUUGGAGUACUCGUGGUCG; conditions: 37 °C;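 also: selection with 25 µg/mL kanamycin versus none on LB agar overnight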
The threshold is inclusive: self-splicing fitness (ln) of exactly -0.9 counts as YES; values below receive NO.

# recordSequence, className
rows = [
    ("GACCAGCAAUAUUACGCAUU", "YES"),
    ("GCCCAGCAAUAUUACGAGAA", "YES"),
    ("GACGAGCAAUAUUACGUAGG", "NO"),
    ("UAUGAGCAAUAUUACGAUCA", "NO"),
    ("UCCGAGCAAUAUUACGCCUC", "NO"),
    ("CUUUAGCAAUAUUACGCCUA", "NO"),
    ("CGCUAGCAAUAUUACGAUGA", "YES"),
    ("UCGCAGCAAUAUUACGCAGC", "NO"),
    ("AGCUAGCAAUAUUACGAUUC", "YES"),
    ("GCAUAGCAAUAUUACGGGUA", "NO"),
    ("GUAUAGCAAUAUUACGCCCA", "YES"),
    ("CUGCAGCAAUAUUACGAACU", "NO"),
    ("CACAAGCAAUAUUACGCGAU", "NO"),
    ("AUUCAGCAAUAUUACGAGCC", "NO"),
    ("GCGCAGCAAUAUUACGAGCU", "NO"),
]

----------
test: self-splicing fitness, log relative to wild type (ln ratio); higher = more splicing; Tetrahymena group I intron in knt gene, E. coli kanamycin selection, DiMSum; sequences stand for … in CUCUCU…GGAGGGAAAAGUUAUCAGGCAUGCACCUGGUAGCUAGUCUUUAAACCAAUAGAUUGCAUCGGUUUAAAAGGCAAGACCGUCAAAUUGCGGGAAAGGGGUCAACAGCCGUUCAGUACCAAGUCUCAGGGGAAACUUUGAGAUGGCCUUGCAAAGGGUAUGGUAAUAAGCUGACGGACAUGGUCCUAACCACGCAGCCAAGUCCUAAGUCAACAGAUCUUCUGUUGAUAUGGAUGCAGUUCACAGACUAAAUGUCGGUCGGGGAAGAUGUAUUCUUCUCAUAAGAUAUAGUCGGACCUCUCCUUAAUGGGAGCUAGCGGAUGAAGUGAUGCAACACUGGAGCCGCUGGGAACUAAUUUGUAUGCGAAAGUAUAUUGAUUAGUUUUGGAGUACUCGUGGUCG; conditions: 37 °C
# label = yes if self-splicing fitness (ln) >= -2 else no

# recordSequence, className
data = [
    ("GUUGAGCAAUAUUACGGUCA", "no"),
    ("UGACAGCAAUAUUACGCAAA", "yes"),
    ("UAACAGCAAUAUUACGAAAC", "no"),
    ("GGUAAGCAAUAUUACGCGGA", "no"),
    ("ACUGAGCAAUAUUACGAGUA", "yes"),
    ("UAUUAGCAAUAUUACGAACA", "yes"),
    ("GAGUAGCAAUAUUACGGUUG", "yes"),
    ("CCCAAGCAAUAUUACGUAGA", "no"),
    ("CCCCAGCAAUAUUACGCGAC", "no"),
    ("UUCGAGCAAUAUUACGUGGG", "no"),
    ("CAACAGCAAUAUUACGGCCA", "yes"),
    ("ACGUAGCAAUAUUACGGGUG", "yes"),
    ("CAAUAGCAAUAUUACGAAUC", "yes"),
    ("AAGAAGCAAUAUUACGACGG", "yes"),
    ("CCCGAGCAAUAUUACGUAAU", "no"),
    ("UUUUAGCAAUAUUACGAAAA", "yes"),
]
